Every entry's value here was drawn from paper PMC6563031.

# Test system: F. oxysporum f. sp. cucumerinum QDAU-8
# assay_info: Antimicrobial 96-well microtiter plate assay, F. oxysporum f. sp. cucumerinum
# Type: cell-based, Fusarium oxysporum f. sp. cucumerinum
# condition_set: Fusarium oxysporum, amphotericin B as positive control, read-out: MIC
Kindly state MIC for each of the entries shown.

Here are 5 compounds together with their reported answers.
- CC(O)CCCCCCC1OC(=O)CC1O (stereo not drawn) [Compound 3, ent-cladospolide F]: > 64 µg/mL
- CC(=O)OC(C)CCCCCCC1OC(=O)CC1O (stereo not drawn) [Compound 4, cladospolide G]: 1 µg/mL
- CC1CC=CCCC(O)CCCC(=O)O1 (stereo not drawn) [Compound 1, 5R-hydroxyrecifeiolide]: > 64 µg/mL
- C[C@@H]1[C@H](O)[C@@H](C)/C=C/C=C/C=C/C=C/C=C/C=C/C=C/[C@H](O[C@@H]2O[C@H](C)[C@@H](O)[C@H](N)[C@@H]2O)C[C@@H]2O[C@](O)(C[C@@H](O)C[C@@H](O)[C@H](O)CC[C@@H](O)C[C@@H](O)CC(=O)O[C@H]1C)C[C@H](O)[C@H]2C(=O)O [Amphotericin B, reference compound]: 0.5 µg/mL
- CC(O)CCCCCC(O)C1C=CC(=O)O1 (stereo not drawn) [Compound 6, iso-cladospolide B]: > 64 µg/mL

Here is the next item to consider.
C[C@H]1CCCCC[C@H](O)C(=O)[C@H](O)CC(=O)O1 [Compound 7, pandangolide 1] has a reported MIC of > 64 µg/mL

====

# Tested on: Pseudomonas aeruginosa QDIO-4
# assay_info: Antimicrobial 96-well microtiter plate assay, P. aeruginosa
# Assay type: cell-based
# condition_set: Pseudomonas aeruginosa, QDIO4, P. aeruginosa; amphotericin B as positive control (as footnoted); read-out: MIC
assay_readout: MIC

Here are 5 compounds together with their reported answers.
- CC(O)CCCCCCC1OC(=O)CC1O (stereo not drawn) [Compound 3, ent-cladospolide F]: 64 µg/mL
- CC(O)CCCCCC(O)C1C=CC(=O)O1 (stereo not drawn) [Compound 6, iso-cladospolide B]: > 64 µg/mL
- CC(=O)OC(C)CCCCCCC1OC(=O)CC1O (stereo not drawn) [Compound 4, cladospolide G]: > 64 µg/mL
- C[C@H]1CCCCC[C@H](O)C(=O)[C@H](O)CC(=O)O1 [Compound 7, pandangolide 1]: 32 µg/mL
- CC1CC=CCCC(O)CCCC(=O)O1 (stereo not drawn) [Compound 1, 5R-hydroxyrecifeiolide]: 32 µg/mL

Here is the next item to consider.
Observed MIC on Pseudomonas aeruginosa QDIO-4, entry C[C@@H]1[C@H](O)[C@@H](C)/C=C/C=C/C=C/C=C/C=C/C=C/C=C/[C@H](O[C@@H]2O[C@H](C)[C@@H](O)[C@H](N)[C@@H]2O)C[C@@H]2O[C@](O)(C[C@@H](O)C[C@@H](O)[C@H](O)CC[C@@H](O)C[C@@H](O)CC(=O)O[C@H]1C)C[C@H](O)[C@H]2C(=O)O [Amphotericin B, reference compound] , equals 2 µg/mL

====

# Test system: Escherichia coli EMBLC-1
# assay_info: Antimicrobial 96-well microtiter plate assay, E. coli
# Format: cell-based
# condition_set: Escherichia coli, EMBLC1, chloramphenicol as positive control, read-out: MIC
Kindly state MIC for each of the entries shown.

Hello, I would appreciate it if you could give MIC for each entry below.
1. CC(=O)OC(C)CCCCCCC1OC(=O)CC1O (stereo not drawn) [Compound 4, cladospolide G]
2. O=C(N[C@H](CO)[C@H](O)c1ccc([N+](=O)[O-])cc1)C(Cl)Cl [Chloramphenicol, reference compound]
3. CC(O)CCCCCCC1OC(=O)CC1O (stereo not drawn) [Compound 3, ent-cladospolide F]
4. CC1CC=CCCC(O)CCCC(=O)O1 (stereo not drawn) [Compound 1, 5R-hydroxyrecifeiolide]
5. C[C@H]1CCCCC[C@H](O)C(=O)[C@H](O)CC(=O)O1 [Compound 7, pandangolide 1]
6. CC(O)CCCCCC(O)C1C=CC(=O)O1 (stereo not drawn) [Compound 6, iso-cladospolide B]

Ans.
1: 32 µg/mL; 2: 2 µg/mL; 3: > 64 µg/mL; 4: > 64 µg/mL; 5: > 64 µg/mL; 6: 32 µg/mL
